Target: G3BP1-NTF2 (residues 1-139) (human (by the printed UniProt entry …))
Assay: ITC
Where no end group is shown, it is not given here.
PROPERTY MEASURED: Kd (nM)

> print(dat)
                                     binder  unit.text  value
1  {GFP}-RQRVQDLMAQMQGPYNFIQDSMLDFENQTLD (domain or fragment) [GFP-Caprin-1^356-386]         nM   4000
2  MALHSPQYIFGDFSPDEFNQFFVTPRSS (domain or fragment) [GFP-USP10^1-28]         nM   1500

Reference source: paper doi:10.1101/2021.02.05.429362
